Data origin, for the record: patent US6251944A

# pIC50 values compiled below
- system under test: Human vitronectin receptor(αvβ3) (Homo sapiens, UniProt P05106+P06756)
- Construct: purified from human placenta
- Sequence (P06756 31-889 limits assumed): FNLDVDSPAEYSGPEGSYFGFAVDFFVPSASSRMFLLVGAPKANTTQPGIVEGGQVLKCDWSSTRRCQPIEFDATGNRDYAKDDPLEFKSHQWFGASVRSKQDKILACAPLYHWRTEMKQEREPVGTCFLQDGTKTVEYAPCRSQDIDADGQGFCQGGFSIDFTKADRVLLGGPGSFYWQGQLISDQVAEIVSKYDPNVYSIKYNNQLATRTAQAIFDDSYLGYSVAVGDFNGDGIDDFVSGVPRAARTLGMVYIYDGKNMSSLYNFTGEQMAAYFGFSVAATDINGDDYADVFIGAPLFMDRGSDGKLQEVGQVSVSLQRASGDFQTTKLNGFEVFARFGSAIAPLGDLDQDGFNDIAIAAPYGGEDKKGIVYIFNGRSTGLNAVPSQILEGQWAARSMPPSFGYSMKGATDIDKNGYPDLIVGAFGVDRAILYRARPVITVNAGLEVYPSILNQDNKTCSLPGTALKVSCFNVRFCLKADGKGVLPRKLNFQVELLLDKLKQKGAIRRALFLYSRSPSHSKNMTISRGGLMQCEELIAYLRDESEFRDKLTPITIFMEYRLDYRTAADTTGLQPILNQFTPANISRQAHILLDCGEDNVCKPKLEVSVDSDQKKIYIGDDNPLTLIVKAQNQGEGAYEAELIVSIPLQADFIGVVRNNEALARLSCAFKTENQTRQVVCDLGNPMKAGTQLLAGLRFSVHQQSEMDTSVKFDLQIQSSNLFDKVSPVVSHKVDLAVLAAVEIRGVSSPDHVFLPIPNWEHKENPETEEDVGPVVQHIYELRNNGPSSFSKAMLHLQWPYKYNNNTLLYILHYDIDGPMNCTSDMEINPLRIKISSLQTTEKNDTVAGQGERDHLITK
- Sequence (P06756 891-1048 limits assumed): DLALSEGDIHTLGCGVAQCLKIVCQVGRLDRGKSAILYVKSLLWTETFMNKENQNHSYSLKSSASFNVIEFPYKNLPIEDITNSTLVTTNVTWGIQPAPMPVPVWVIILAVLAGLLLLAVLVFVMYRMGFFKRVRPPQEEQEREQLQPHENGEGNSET
- Sequence (P05106 27-788): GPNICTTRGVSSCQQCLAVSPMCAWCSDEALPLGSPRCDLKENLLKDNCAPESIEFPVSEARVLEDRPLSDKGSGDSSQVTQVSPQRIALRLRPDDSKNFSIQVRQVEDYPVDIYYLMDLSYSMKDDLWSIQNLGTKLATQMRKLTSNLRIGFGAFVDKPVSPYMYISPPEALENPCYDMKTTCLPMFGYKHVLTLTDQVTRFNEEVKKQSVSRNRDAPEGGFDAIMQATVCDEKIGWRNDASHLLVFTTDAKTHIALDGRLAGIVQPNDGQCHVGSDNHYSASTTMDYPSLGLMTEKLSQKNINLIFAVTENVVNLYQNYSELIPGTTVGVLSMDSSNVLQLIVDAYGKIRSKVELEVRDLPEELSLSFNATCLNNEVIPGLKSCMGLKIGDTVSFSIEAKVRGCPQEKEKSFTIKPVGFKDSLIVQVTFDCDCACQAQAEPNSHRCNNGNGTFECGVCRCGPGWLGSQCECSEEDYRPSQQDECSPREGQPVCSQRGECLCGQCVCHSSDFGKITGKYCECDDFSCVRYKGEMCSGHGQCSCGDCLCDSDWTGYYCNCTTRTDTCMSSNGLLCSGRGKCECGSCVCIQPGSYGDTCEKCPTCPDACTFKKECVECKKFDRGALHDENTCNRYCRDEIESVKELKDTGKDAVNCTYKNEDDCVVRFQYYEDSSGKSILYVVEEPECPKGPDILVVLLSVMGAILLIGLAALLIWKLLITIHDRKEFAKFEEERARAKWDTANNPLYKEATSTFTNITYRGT
- protocol: Vitronectin adhesion assay (solid phase receptor assay, αvβ3)
- reported conditions: inhibition of 50% of maximum binding of biotinylated vitronectin; highest concentration tested 1.0×10^-4 M; read-out: AvB3 IC50
- Procedure: The activity of the compounds of the present invention was tested in the following assays. […] Assay buffer, OPD substrate tablets, and RIA grade BSA were obtained from Sigma (St. Louis, Mo.). Anti-biotin antibody was obtained from Calbiochem (La Jolla, Calif.). Linbro microtiter plates were obtained from Flow Labs (McLean, Va.). […] The data were analyzed using a macro written for use with the EXCEL™ spreadsheet program. The mean, standard deviation, and % CV were determined for duplicate concentrations. […]
Where a name gives a salt, the structure may show the parent alone.
Kindly note that pIC50 refers to -log10 of the concentration in mol/L and answer with the value alone.

Field: example entries. Status: answers known.
compound | system under test | measured result
COC(=O)[C@H](Cc1ccc(NC(=O)c2cccc(NC(=N)N)c2)cc1)NC(=O)OC(C)(C)C [Example 45, trifluoroacetate Salt] | Human vitronectin receptor(αvβ3) (Homo sapiens, UniProt P05106+P06756) | 7.40
CCOC(=O)C(Cc1ccc(NC(=O)c2cccc(NC(=N)N)c2)cc1)NC(=O)c1ccccc1 (stereo not drawn) [Example 36, monohydrate trifluoroacetate Salt] | Human vitronectin receptor(αvβ3) (Homo sapiens, UniProt P05106+P06756) | 6.00

Turning to the following compound.
Req: Consider the compound COc1cc(NC(=O)c2cccc(NC(=N)N)c2)ccc1CC(NC(=O)OC(C)C)C(=O)O (stereo not drawn) [Example 113, trifluoroacetate salt, monohydrate] and give its measured pIC50.
Resp: 9.00
